Experiment: NCI Yeast Anticancer Drug Screen. Data for the sgs1 mgt1 strain (AID 161)
Conditions: S. cerevisiae sgs1 mgt1 strain, at 5.0 µM (retest, dose inferred, filed as 0.5), hits give high values
Compounds without any hit were thinned out: in the full panel of roughly 79,000, 15% have a hit.
Classify by measured growth inhibition: Yes if it is equal to or exceeds 20%, No if it is smaller.

Consider the following illustrative entries.
molecule: O=c1oc2c(-c3ccccc3)cccc2c(O)c1-c1ccccc1
category.label: No
//
molecule: CC1(C(Cl)(Cl)Cl)C=CC(=NO)C=C1 (stereo not given)
category.label: No
//
molecule: COC1=C(NC(C)=O)C(=O)c2nc(-c3nc(C(=O)O)c(C)c(-c4ccc(OC)c(OC)c4O)c3N)ccc2C1=O
category.label: Yes
//
molecule: Fc1ccc(CSC(=S)Nc2ccc(F)cc2)cc1
category.label: No
//
molecule: CSc1c(C)n([O-])c2cc(Cl)c(Cl)cc2[n+]1=O
category.label: Yes

Decide: growth inhibition of `CCCCN(CCC(=O)O)c1ccc(/C=C\c2ccnc3ccccc23)cc1` >= 20%?
Yes
